Hey, just so you know, these numbers are from patent US20240124503A1.

# System: ME-21-0028
# experiment-summary: Cell viability, skin melanoma PDX ME-21-0028
# Assay type: cell-based
# condition: text summary of Table 21; read-out: IC50, skin melanoma PDX growth
test-readout: IC50

Asked: Which measured IC50 value corresponds to "COc1c(O)ccc2c(=O)c(O)c(-c3ccc(CCCC[P+](c4ccccc4)(c4ccccc4)c4ccccc4)cc3)oc12" ?
Given back: < 20 µM

* * *

# System: HL-60
# experiment-summary: Cell viability assay, HL-60
# Type: cell-based
# condition: Homo sapiens, HL-60; summary of Table 12; read-out: IC50, leukaemia cell growth
pIC50: −log10 of the molar value.
test-readout: pIC50

Asked: Request the reported pIC50 associated with "COc1c(O)ccc2c(=O)c(O)c(-c3ccc(CCCC[P+](c4ccccc4)(c4ccccc4)c4ccccc4)cc3)oc12"
Given back: > 6.00
